test system: FTC-133 (Thyroid Gland Carcinoma); experiment: Bliss excess, mean over the matrix (fraction); higher = more synergy;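 further: after 72 h of two-drug dosing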
Property: Bliss excess
Give bare numbers.

Cc1cc2ncnn2cc1Nc1ncc2c(n1)n(C1CCOCC1)c(=O)n2C [AZD7648] + C[C@@H]1COCCN1C2=NC(=NC(=C2)C3(CC3)[S@](=N)(=O)C)C4=C5C=CNC5=NC=C4 [AZD6738] (first compound max 10 µM, 7x7, partner max 10 µM) : -0.0369

Now for another entry.
Item C=CCn1c(=O)c2cnc(Nc3ccc(N4CCN(C)CC4)cc3)nc2n1-c1cccc(C(C)(C)O)n1 [AZD1775] + O=C(c1cc(Cc2n[nH]c(=O)c3ccccc23)ccc1F)N1CCN(C(=O)C2CC2)CC1 [Olaparib] (first compound max 1 µM, partner max 10 µM) ; assay system FTC-133 (Thyroid Gland Carcinoma); Bliss excess reported as -0.0645
